Values were extracted from the supplement of paper PMC7125110.

B1: glmS ribozyme (parent)
chain: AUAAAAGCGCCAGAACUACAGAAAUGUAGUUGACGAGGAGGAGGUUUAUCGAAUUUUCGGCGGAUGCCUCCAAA

Variants of: B1
Experiment: KM; higher = weaker cofactor use; RNA array
Conditions: with glucosamine-6-phosphate
Would you please tag the item label 1 when its KM is 2000 µM or above, and label 0 when it is below?

> print(dat)
            mutant.name  class.name
 1            A14C G66C     label 1
 2             A6U U55C     label 0
 3            U45A G66U     label 1
 4            A48C A53U     label 1
 5            G13A C61G     label 0
 6            A14U G59A     label 1
 7            G32A A39C     label 1
 8  G13U A15G G32A C70G     label 0
 9            G13A U45G     label 1
10             A6U A39G     label 1
11            A12U G41C     label 0
12             A6U G66A     label 1
13            A15C U47A     label 1
14            A12U A64C     label 1
15            C11A G41A     label 1
16            A33U G66C     label 1
17            A15G G43A     label 1
18            U46C C68U     label 0
19            A12G C70A     label 0
20            G32A G40C     label 1
21            A12C G38U     label 0
22            A12G U45C     label 1
23            U49G C71A     label 0
24            A15G C68A     label 0
25            C11A A15G     label 0
26            G29U A64U     label 1
27                  A5U     label 0
28            U46G G66U     label 1
29            U55A A64U     label 1
30            A12C U69C     label 0
31             A6C A14G     label 0
32            G13C G29U     label 1
33       A39U G40A C67A     label 0
